Target: T1, human neuropeptide FF receptor (NPFF1) (human, UniProt Q9GZQ6 1-430)
T1 construct: also called human NPFF1; hNPFF1
T1 sequence (Q9GZQ6 whole entry): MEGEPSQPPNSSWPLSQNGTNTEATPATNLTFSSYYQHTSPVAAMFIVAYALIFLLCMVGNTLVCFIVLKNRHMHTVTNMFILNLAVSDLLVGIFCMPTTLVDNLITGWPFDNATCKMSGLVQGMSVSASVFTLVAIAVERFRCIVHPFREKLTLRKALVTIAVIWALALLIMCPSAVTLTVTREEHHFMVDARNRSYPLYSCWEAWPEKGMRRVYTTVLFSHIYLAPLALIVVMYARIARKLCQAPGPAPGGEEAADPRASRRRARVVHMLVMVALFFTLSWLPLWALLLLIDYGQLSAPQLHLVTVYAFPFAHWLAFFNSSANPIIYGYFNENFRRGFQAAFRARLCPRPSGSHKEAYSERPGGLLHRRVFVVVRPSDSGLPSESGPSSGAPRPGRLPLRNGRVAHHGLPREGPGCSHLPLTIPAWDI
Assay: competition with [125I]D-Tyr-NPFF, HEK-293 cells with the cloned receptor
Non-standard residues stand in square brackets, D forms with d. No end group written: not given here. NMeF = CN[C@@H](Cc1ccccc1)C(=O)O
Measured metric: pKi
Give only the figure.

Reference set, count: 4
>>> observed_measurement("PQRF-NH2 (C-terminal tetrapeptide of NPFF; also called PGRF-amide [sic]) [PQRF-amide]")
7.4
>>> observed_measurement("APSEPHHPGDQATQDQLAQYYSDLYQYITFVTRPRF (not fully specified; ends and bridges not checked, also called fPP) [Frog pancreatic polypeptide (frog PP) (Rana Temporaria)]")
5.9
>>> observed_measurement("FMRF-NH2 [FMRF amide]")
9.1
>>> observed_measurement("AGEGLSSPFWSLAAPQRF-NH2 (also called NPAF) [rat A-18-F-amide]")
7.2

Q: Fill in the blank: the reported pKi of [dY]L[NMeF]QPQRF-NH2 (N-terminus assumed; SMILES CC(C)C[C@H](NC(=O)[C@H](N)Cc1ccc(O)cc1)C(=O)N(C)[C@@H](Cc1ccccc1)C(=O)N[C@@H](CCC(N)=O)C(=O)N1CCC[C@H]1C(=O)N[C@@H](CCC(N)=O)C(=O)N[C@@H](CCCNC(=N)N)C(=O)N[C@@H](Cc1ccccc1)C(N)=O, also called D-Tyr-NPFF; (1DMe)Y8Fa) [(D-Tyr^1-(NMe)Phe^3)NPFF] is ____.
A: 8.1

Q: Fill in the blank: the reported pKi of FMRF (D-Met in place of L-Met, C-terminal amide, also called the D-Met analog) [D-Met-FMRF amide] is ____.
A: 6.6

Cited source: patent US20050089937A1
